Molecular target: UniProt:P34998
Experiment: Inhibition of CRF-stimulated cAMP production in cells expressing CRF1 receptor
pIC50: −log10 of the molar value.
Value Kind: pIC50

                                smiles_repr  observed_measurement
0  CCCN(CC1CC1)c1nc(C)nc(C(=O)c2c(OC)cc(OC)cc2OC)c1C                  6.00
1  CCCN(CC1CC1)c1nc(C)nc(C(=O)c2c(C)cc(C)cc2C)c1C                  5.92

----------
Molecular target: Corticotropin-releasing factor receptor 1 (Homo sapiens, UniProt P34998)
Sequence (P34998 whole entry): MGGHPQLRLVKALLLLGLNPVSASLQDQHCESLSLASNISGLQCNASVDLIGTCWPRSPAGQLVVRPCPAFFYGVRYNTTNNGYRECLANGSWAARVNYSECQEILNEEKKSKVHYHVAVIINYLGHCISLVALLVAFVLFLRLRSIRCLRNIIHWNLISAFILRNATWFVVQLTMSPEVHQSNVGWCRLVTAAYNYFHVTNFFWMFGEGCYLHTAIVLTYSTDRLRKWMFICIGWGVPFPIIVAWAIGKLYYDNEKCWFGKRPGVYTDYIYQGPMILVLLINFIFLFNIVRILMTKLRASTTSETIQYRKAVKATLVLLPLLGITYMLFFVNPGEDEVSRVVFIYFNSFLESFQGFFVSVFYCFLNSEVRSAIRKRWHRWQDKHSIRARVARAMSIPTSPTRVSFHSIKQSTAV
Experiment: Binding affinity for recombinant human CRF1 receptor
Value Kind: Ki (nM)

The cases that follow already have their Ki on record.
In [3]: df
Out[3]:
                                   molecule  value_kind  observed_measurement
0  C=CCN(CC=C)c1nc(C)nc(C(=O)c2c(C)cc(C)cc2C)c1C          Ki                    38
1  C=C(c1nc(C)nc(N(CCC)CC2CC2)c1C)c1c(OC)cc(OC)cc1OC          Ki                   560
2  CCCN(CC1CC1)c1cc(C)nc(C(=O)c2c(OC)cc(OC)cc2OC)n1          Ki                   630

A. CCCN(CC1CC1)c1nc(C)nc(C(=O)c2c(OC)cc(OC)cc2OC)c1C
B. CCCN(CC1CC1)c1nc(C)nc(C(=O)c2ccc(OC)cc2OC)c1C
C. CCCN(CC1CC1)c1nc(C)nc(C(O)c2c(C)cc(C)cc2C)c1C (stereo not drawn)
D. CCCN(CC1CC1)c1cc(C(=O)c2c(C)cc(C)cc2C)nc(C)n1
E. CCCN(CC1CC1)c1nc(C)nc(C(O)c2c(CC)cc(CC)cc2CC)c1C (stereo not drawn)
// query Order the records by Ki, with each subsequent value no larger than the one before. Answer format: the labels, in the requested order.
// result B, E, D, C, A
(B: 810 nM, E: 360 nM, D: 200 nM, C: 79 nM, A: 38 nM)

----------
Target: Corticotropin-releasing factor receptor 1 (Homo sapiens)
Sequence (P34998 whole entry): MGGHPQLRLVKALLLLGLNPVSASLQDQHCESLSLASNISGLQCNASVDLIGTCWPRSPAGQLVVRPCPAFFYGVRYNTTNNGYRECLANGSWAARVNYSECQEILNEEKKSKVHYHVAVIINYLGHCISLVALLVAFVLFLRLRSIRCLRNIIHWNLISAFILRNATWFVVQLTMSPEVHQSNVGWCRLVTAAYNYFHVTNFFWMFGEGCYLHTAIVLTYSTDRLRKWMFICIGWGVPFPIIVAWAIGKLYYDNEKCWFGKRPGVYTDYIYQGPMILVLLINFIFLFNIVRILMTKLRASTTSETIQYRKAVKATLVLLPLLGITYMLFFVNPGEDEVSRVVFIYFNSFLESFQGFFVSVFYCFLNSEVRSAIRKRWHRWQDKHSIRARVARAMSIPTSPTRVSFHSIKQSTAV
Experiment: Binding affinity for recombinant human CRF1 receptor
Value Kind: Ki

// query Sample Cc1cc(C)c(C(=O)c2nc(C)nc(N3CCOCC3)c2C)c(C)c1 — what was its Ki?
// result > 10 µM

// query Now consider CCCN(CC1CC1)c1nc(C)nc(C(C)(C)c2c(OC)cc(OC)cc2OC)c1C and answer again.
// result > 10 µM

// query Also CCCN(CC1CC1)c1cc(C(=O)c2c(C)c(C)c(C)c(C)c2C)nc(C)n1 , if possible.
// result > 10 µM
